Format: in vivo, human
CONDITION_PARAMETERS: human, plasma, oral, 1800 mg/day, Tmax, Panel 1 (MT), Dose 1; median (range)
VALUE_TYPE: Tmax (h)
Numbers only, in h.

Task: Would you mind telling me what Tmax value was observed for O=C(O)[C@]1(Cc2cccc(Nc3nccs3)n2)CC[C@@H](Oc2cccc(Cl)c2F)CC1 [MK-5108] ?
Output: 2

---

Format: in vivo, human
CONDITION_PARAMETERS: human, plasma, oral, 1500 mg/day, C12h, Panel 1 (MT), Dose 1
VALUE_TYPE: concentration at 12 h
Number first, unit second.

Task: What value of concentration at 12 h has been reported for the following molecule? O=C(O)[C@]1(Cc2cccc(Nc3nccs3)n2)CC[C@@H](Oc2cccc(Cl)c2F)CC1
Output: 1040 nM
